In this section we review reported log10 IC50 values for a set of compounds.
Biological target: Human recombinant DHX9 protein (Homo sapiens (Human), UniProt Q08211)
Sequence (Q08211 whole entry): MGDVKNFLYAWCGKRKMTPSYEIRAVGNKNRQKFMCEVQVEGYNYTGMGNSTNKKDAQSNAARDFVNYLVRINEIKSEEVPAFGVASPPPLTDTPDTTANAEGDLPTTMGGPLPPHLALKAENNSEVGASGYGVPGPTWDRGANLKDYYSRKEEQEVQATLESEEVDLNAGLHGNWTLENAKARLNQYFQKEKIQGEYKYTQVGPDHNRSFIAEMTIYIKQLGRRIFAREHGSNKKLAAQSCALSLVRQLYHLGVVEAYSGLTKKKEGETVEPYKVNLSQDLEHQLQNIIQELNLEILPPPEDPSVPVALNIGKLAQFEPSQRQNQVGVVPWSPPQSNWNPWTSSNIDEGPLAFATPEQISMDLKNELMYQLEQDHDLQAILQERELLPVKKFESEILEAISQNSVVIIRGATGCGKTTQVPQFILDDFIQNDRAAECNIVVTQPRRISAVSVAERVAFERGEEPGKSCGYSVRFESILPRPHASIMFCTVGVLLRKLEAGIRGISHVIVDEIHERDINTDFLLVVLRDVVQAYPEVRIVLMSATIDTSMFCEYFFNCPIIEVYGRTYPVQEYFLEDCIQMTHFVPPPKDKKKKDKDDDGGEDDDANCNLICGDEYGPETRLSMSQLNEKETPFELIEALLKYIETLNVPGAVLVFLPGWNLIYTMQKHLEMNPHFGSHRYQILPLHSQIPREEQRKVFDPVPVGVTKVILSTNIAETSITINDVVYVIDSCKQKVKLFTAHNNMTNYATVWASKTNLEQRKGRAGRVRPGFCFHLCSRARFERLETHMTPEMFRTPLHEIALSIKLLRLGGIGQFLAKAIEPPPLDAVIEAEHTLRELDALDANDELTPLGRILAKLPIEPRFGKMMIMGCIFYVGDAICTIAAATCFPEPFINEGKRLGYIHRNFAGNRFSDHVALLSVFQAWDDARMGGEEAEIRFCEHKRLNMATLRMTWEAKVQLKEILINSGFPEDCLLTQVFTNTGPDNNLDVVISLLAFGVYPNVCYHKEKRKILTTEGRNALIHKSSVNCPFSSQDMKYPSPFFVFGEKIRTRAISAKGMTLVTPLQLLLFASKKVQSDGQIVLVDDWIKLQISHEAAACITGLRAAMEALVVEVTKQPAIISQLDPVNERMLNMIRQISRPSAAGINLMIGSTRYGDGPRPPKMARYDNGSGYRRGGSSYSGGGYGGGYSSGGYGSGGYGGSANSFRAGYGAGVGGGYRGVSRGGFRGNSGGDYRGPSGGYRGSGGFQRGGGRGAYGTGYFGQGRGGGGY
Test: DHX9 ATPase assay (ADP-Glo)
Settings: read-out: DHX9 Biochemical Inflection Point
measured_endpoint: log10 IC50 (log10 of the value in nM)

> print(dat)
                                    compound  result.value
 1  Cc1cc(C(=O)Nc2cc(Cl)cc(NS(C)(=O)=O)c2)cn1-c1ncc(N2CC(F)(F)C2)cc1C#N          1.19
 2  Cc1cccc(C#N)c1-n1cc(C(=O)Nc2cc(Br)cc(NS(C)(=O)=O)c2)cn1          2.14
 3  CS(=O)(=O)Nc1cc(Cl)cc(NC(=O)c2cnn(-c3ncccc3Oc3cccnc3)c2)c1          1.85
 4  Cc1cccnc1-c1csc(C(=O)Nc2cc(Cl)cc(NS(C)(=O)=O)c2)c1C          3.92
 5  Cc1sc(C(=O)Nc2cc(Cl)cc(NS(C)(=O)=O)c2)cc1-c1ncc(F)cc1N1CCC2(CC1)CC2          3.18
 6  CS(=O)(=O)Nc1cc(F)cc(NC(=O)c2cc(-c3ccccc3O)cs2)c1          1.64
 7  CS(=O)(=O)Nc1cc(Cl)cc(NC(=O)c2cnn(-c3c(F)cccc3OCc3cncc(F)c3)c2)c1          1.20
 8  Cc1cc(C(=O)Nc2cc(Cl)cc(NS(C)(=O)=O)c2)cn1-c1ccc(N2CCN(C)C(=O)C2)cn1          0.26
 9  CS(=O)(=O)Nc1cc(Br)cc(NC(=O)c2cc(-c3ncccn3)cs2)c1          0.75
10  Cc1cc(C(=O)Nc2cc(Cl)cc(NS(C)(=O)=O)c2)cn1-c1ccc(N2CC3CC3C2)cn1 (stereo not drawn)          1.62
11  CS(=O)(=O)Nc1cc(Cl)cc(NC(=O)c2cnn(C3CC4(COC4)C3)c2)c1          2.24
12  Cn1cc(C(=O)Nc2cc(Cl)cc(NS(C)(=O)=O)c2)cc1-c1ccc(N2CCN(C(=O)C3CC3)CC2)cn1          1.04
13  CS(=O)(=O)Nc1cc(Br)cc(NC(=O)c2cnn(-c3cnccn3)c2)c1          1.20
14  Cc1sc(C(=O)Nc2cc(Cl)cc(NS(C)(=O)=O)c2)cc1-c1ncccc1OC(C)c1cncc(F)c1 (single isomer, unassigned) [Example 631]          1.49
15  Cc1sc(C(=O)Nc2cc(Cl)cc(NS(C)(=O)=O)c2)cc1-c1ncc(N2CCC(F)(F)C2)cc1F          1.53
16  Cn1cc(C(=O)Nc2cc(Cl)cc(NS(C)(=O)=O)c2)cc1-c1ncc(N2CCC3(C2)CC3(F)F)cn1 (stereo not drawn)          1.43
17  CS(=O)(=O)Nc1cc(Cl)cc(NC(=O)c2cc3ccc(Cl)cc3s2)c1          1.94
18  CS(=O)(=O)Nc1cc(Cl)cc(NC(=O)c2cnn(-c3ccc(N4CCn5ccnc5C4)cn3)c2)c1          1.22
19  Cc1cc(C(=O)Nc2cc(Cl)cc(NS(C)(=O)=O)c2)cn1-c1ncc(N2CCOCC2)cc1F          1.02
20  CC(C)n1cc(C(=O)Nc2cc(Cl)cc(NS(C)(=O)=O)c2)cc1-c1ncc(F)cn1          2.16
21  COc1ccc(-c2cc(C(=O)Nc3cc(Cl)cc(NS(C)(=O)=O)c3)cn2C)nc1          1.19
22  CS(=O)(=O)Nc1cc(Cl)cc(NC(=O)c2cc3c(F)ccc(F)c3s2)c1          2.77
23  CCS(=O)(=O)Nc1cc(Cl)cc(NC(=O)c2cc(-c3ncc(F)cc3OCc3nccs3)c(C)s2)c1          1.36
24  COc1cnn(-c2cc(C(=O)Nc3cc(Cl)cc(NS(C)(=O)=O)c3)sc2C)c1          1.20
25  Cc1cc(C(=O)Nc2cc(Cl)cc(NS(C)(=O)=O)c2)cn1-c1ccc(N2C3CCC2CC3)cn1          1.50
26  Cc1cc(C(=O)Nc2cc(Cl)cc(NS(C)(=O)=O)c2)cn1-c1ncc(N2CC(F)(F)C2)cc1F          1.25
27  Cc1cc(C(=O)Nc2cc(Br)cc(NS(C)(=O)=O)c2)cn1C1CCCCC1          2.00
28  Cc1sc(C(=O)Nc2cc(Cl)cc(NS(C)(=O)=O)c2)cc1-c1ncccc1OC(C)c1cc(F)cc(F)c1 (single isomer, unassigned) [Example 632]          2.38
29  Cc1sc(C(=O)Nc2cc(Cl)cc(NS(C)(=O)=O)c2)cc1-c1ncc(N2CC(F)(F)C2)cc1OC1CCC1          1.87
30  Cc1sc(C(=O)Nc2cc(Cl)cc(NS(C)(=O)=O)c2)cc1-c1ccc(C2CN(CC(F)(F)F)C2)cn1          1.16
